test: Intrinsic clearance in human liver microsomes pre-incubated at 37 degC for 5 mins before NADPH addition by LCMS/MS method; assay type: ADME; conditions: read-out: CLH
microsomal CLint listing for selected molecules.

Reference set, count: 5
[[record]]
molecular_string = "CCn1c([C@@H](C)NS(=O)(=O)c2ccc(Cl)cc2)nc2ccc(C(F)(F)F)cc21"
obs_value = "> 100 µL/min/mg"

[[record]]
molecular_string = "CCn1c([C@@H](C)NS(=O)(=O)c2ccc(Cl)cc2)nc2ccccc21"
obs_value = "> 100 µL/min/mg"

[[record]]
molecular_string = "CCn1c([C@@H](C)NS(=O)(=O)C2CC2)nc2ccc(C(F)(F)F)cc21"
obs_value = "< 3 µL/min/mg"

[[record]]
molecular_string = "CCn1c([C@@H](C)NS(=O)(=O)c2ccc(CC(C)C)cc2)nc2ccc(C(F)(F)F)cc21"
obs_value = "> 100 µL/min/mg"

[[record]]
molecular_string = "CCn1c([C@@H](C)NS(=O)(=O)c2ccc(NC(C)=O)c(C)c2)nc2ccc(C(F)(F)F)cc21"
obs_value = "> 100 µL/min/mg"


Next, consider the following molecule.
Inquiry: Please list microsomal CLint recorded for the molecule CCn1c([C@@H](C)NS(=O)(=O)c2ccc(Cl)cc2)nc2cc(F)c(Cl)cc21
Reply text: > 100 µL/min/mg
